System: MDA-N
Protocol Summary: NCI tumour cell line growth inhibition, 48 h
Active and inactive are the calls of the source. No stated cut-off is given here; in the data, active = GI50 up to about 1.1 µM and inactive = higher.
Classes used: active, inactive

Molecule	Class Label
CC(C)(C)OC(=O)N1C(c2cccnc2)=CC[C@H]2C3CC=C(c4cccnc4)[C@@]3(C)CC[C@@H]21 (stereo not given in full)	inactive
O=C(O)c1nc2cc(C(F)(F)F)ccc2nc1Nc1ccc(F)cc1	inactive
COc1cccc(/C=C\c2ccc(O)cc2)c1	inactive
CCCSc1ccc2[nH]c(N3C(=O)/C(=C/c4ccc(O)c(OC)c4)N=C3c3ccccc3)cc2c1	inactive
COc1ccc(N2C(=O)CC(=O)N(C(=O)CCCCCCCCC(=O)N3C(=O)CC(=O)N(c4ccc(OC)cc4)C3=S)C2=S)cc1	inactive
C(/c1ccco1)=c1/nc(-c2ccccc2)n2c1nc1ccccc12	inactive
COc1cc(C2c3cc4c(cc3OC(N3CCOCC3)C2C)OCO4)ccc1O (stereo not given)	inactive
Nc1nc2c(ncn2C2C=CC(COS(N)(=O)=O)C2)c(=O)[nH]1 (stereo not given)	inactive
O=C1c2sccc2C(=O)c2c(CO)csc21	inactive
CC[C@@]1(O)C(=O)OCc2c1cc1n(c2=O)Cc2c-1nc1ccccc1c2/C=N\NC(=O)C(N)Cc1c[nH]cn1 (stereo not given in full)	inactive
O=C(/C=C/c1ccc(O)c(O)c1)NC(CO)C(=O)O (stereo not given)	inactive
C=C1CC2C[C@H](OS(=O)(=O)c3ccc(C)cc3)C(C1)N2C (stereo not given in full)	inactive
CC1(C)O[C@H]2OC(CO)C(OS(C)(=O)=O)[C@H]2O1 (stereo not given in full)	inactive
CCCN1C(=O)CN(S(=O)(=O)c2ccc(Cl)cc2)C1=O	inactive
N=C(N)NS(=O)(=O)c1ccc(NNc2c3ccccc3nc3c(C(=O)Nc4ccc(S(=O)(=O)Nc5ncccn5)cc4)cccc23)cc1	inactive
CC(C)(Cl)C(Br)CCC(Br)(CCl)C(Cl)CBr (stereo not given)	inactive
O[C@H]1[C@H]2c3cc4c(cc3CN3CCC(=C[C@@H]1O)[C@H]23)OCO4	inactive
COc1c(C)c(C/C=C(\C)CC/C=C(\C)CC/C=C(\C)CCC=C(C)C)c(OC)c2ccccc12	inactive
C=C1C(=O)O[C@H]2C(=O)[C@H](C)CCC/C(C)=C/CC[C@@]3(C)O[C@@H]3C[C@@H]12	inactive
O=C(Cn1ccc(=O)[nH]c1=O)Nc1ccc(C(=O)O)c(O)c1	inactive
NC(CSCc1ccccc1)C(=O)O (stereo not given)	inactive
COC(=O)C1C(OC(=O)C(Cl)(c2ccccc2)c2ccccc2)CC2CCC1N2C (stereo not given)	inactive
CN(C)CC(NC(NCS)C(=O)NCCNc1ccc(NCCNC(=O)C(NCS)NC(CN(C)C)OCCl)c2c1C(=O)c1c(O)ccc(O)c1C2=O)OCCl (stereo not given)	active
CCCCCOC(=O)C(=O)Nc1[nH]nnc1C(N)=O	inactive
COC(=O)C(=O)C(C(=O)C(=O)Nc1ccccc1C(N)=O)c1nc2ccc(Cl)cc2nc1O (stereo not given)	inactive
O=C(Nc1nc(C23CC4CC(CC(C4)C2)C3)cs1)c1cc2c(ccc3ccccc32)oc1=O	inactive
CC1(C)OC2COC(c3n[nH]c4c(=O)[nH]c(=O)[nH]c34)C2O1 (stereo not given)	inactive
O=c1[nH]n(Cc2ccccc2Cl)c2ccccc12	inactive
COC(C/C(=C/CO[Si](C(C)C)(C(C)C)C(C)C)C(=O)N(C(=O)OC(C)(C)C)c1ccccc1I)OC	inactive
COc1cccc(N2C(=O)C3c4[nH]c5ccccc5c4C4c5ccccc5CCC4C3C2=O)c1 (stereo not given)	inactive
CSc1c(C(=O)Nc2ccc(Cl)cc2)c(N)nn1-c1ccccc1	inactive
C/C(=N/NC(=S)N1CCCCC1)c1cccc(/C(C)=N\NC(=S)N2CCCCC2)n1	inactive
CSc1ncc2c(n1)-c1ccccc1OC2NC1CC1 (stereo not given)	inactive
CC1=C[C@H](C[C@]2(C)c3c(c4c(C)cccc4oc3=O)O[C@@H]2C)OC1=O	inactive
COc1ccc(C2c3cc4c(cc3OC(NNC(N)=O)C2C)OCO4)cc1 (stereo not given)	inactive
CCOC(=O)C1(Cc2ccccc2)C=CN(C(=O)c2ccccc2)C=C1	inactive
Cn1c(N/N=C/c2ccc(Cl)cc2)nc(-c2ccc(Cl)cc2)c(C#N)c1=O	inactive
O=S(=O)(CCCCl)SCCCCl	inactive
COc1cc(Cn2c3c(c4c(CN(C)C)c(O)ccc42)C(=O)c2ccccc2C3=O)cc(OC)c1	inactive
CC[N+]1(C)CCC(O)(c2ccc(C)cc2)C(C(=O)c2ccc(C)cc2)C1 (stereo not given)	inactive
